Reference for the values: patent US12441768B2

Tested On: β-catenin (Homo sapiens, UniProt P35222)
Sequence (P35222 1-781): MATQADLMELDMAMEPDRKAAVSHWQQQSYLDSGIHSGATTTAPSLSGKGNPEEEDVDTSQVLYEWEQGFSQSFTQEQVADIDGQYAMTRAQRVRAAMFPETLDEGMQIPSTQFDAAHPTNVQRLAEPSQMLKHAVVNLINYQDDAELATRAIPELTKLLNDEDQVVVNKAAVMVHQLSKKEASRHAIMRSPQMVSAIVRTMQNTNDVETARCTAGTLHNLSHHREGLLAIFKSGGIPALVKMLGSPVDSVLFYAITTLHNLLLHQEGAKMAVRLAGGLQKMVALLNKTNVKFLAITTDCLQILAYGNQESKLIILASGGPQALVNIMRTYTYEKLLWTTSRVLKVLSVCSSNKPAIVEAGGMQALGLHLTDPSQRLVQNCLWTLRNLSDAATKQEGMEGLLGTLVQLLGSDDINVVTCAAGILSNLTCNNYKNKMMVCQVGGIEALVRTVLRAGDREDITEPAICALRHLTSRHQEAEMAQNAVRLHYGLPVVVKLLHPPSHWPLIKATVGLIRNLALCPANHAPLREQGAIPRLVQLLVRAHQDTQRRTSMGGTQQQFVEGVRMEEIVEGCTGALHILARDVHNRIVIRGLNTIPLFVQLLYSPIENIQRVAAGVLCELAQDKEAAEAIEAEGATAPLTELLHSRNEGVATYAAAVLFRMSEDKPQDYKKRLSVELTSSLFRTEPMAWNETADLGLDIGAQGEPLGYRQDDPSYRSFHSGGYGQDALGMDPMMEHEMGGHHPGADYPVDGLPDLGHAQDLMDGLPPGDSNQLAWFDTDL
Assay Summary: KD50 measurement using competitive fluorescence polarization (FP) with labelled TCF4
Assay type: binding
Condition Notes: fluorescence polarization, β-catenin; read-out: β-Cat FP KD
Where a SMILES comes first, the peptide text is derived from it.
Result Type: Kd

I would be grateful if you could share the reported Kd for CC[C@H](C)[C@@H]1NC(=O)[C@H](CC(C)C)NC(=O)[C@H]([C@@H](C)CC)NC(=O)[C@H](Cc2c[nH]c3ccccc23)NC(=O)[C@H](CCSC)NC(=O)[C@@H](N)CCCCNC(=O)CNC(=O)[C@H](Cc2c[nH]c3ccccc23)NC(=O)[C@H](Cc2ccccc2)NC(=O)[C@H](CO)NC1=O [compound 71] (HELM PEPTIDE1{K.M.W.I.L.I.S.F.W.G}$PEPTIDE1,PEPTIDE1,1:R3-10:R2$$$V2.0) .
> 30 µM

I would be grateful if you could share the reported Kd for CC[C@H](C)[C@H](NC(=O)[C@H](CC(C)C)NC(=O)[C@@H](NC(=O)[C@H](Cc1c[nH]c2ccccc12)NC(=O)[C@@H](N)CCSC)[C@@H](C)CC)C(=O)N[C@@H](CO)C(=O)N[C@@H](Cc1ccccc1)C(=O)N[C@@H](Cc1c[nH]c2ccccc12)C(=O)NCC(=O)O [compound 43] (H-MWILISFWG-OH) .
0.4 to 1 µM

I would be grateful if you could share the reported Kd for CC[C@H](C)[C@H](NC(=O)[C@H](CC(C)C)NC(=O)[C@H](Cc1ccccc1)NC(=O)[C@@H](N)Cc1c[nH]c2ccccc12)C(=O)N[C@@H](CO)C(=O)N[C@H](C(=O)N[C@@H](Cc1c[nH]c2ccccc12)C(=O)O)[C@@H](C)O [compound 103] (H-WFLISTW-OH) .
1 to 10 µM
